Target: T1, His-KDM4D-FL (human, UniProt Q6B0I6 1-523)
T1 sequence: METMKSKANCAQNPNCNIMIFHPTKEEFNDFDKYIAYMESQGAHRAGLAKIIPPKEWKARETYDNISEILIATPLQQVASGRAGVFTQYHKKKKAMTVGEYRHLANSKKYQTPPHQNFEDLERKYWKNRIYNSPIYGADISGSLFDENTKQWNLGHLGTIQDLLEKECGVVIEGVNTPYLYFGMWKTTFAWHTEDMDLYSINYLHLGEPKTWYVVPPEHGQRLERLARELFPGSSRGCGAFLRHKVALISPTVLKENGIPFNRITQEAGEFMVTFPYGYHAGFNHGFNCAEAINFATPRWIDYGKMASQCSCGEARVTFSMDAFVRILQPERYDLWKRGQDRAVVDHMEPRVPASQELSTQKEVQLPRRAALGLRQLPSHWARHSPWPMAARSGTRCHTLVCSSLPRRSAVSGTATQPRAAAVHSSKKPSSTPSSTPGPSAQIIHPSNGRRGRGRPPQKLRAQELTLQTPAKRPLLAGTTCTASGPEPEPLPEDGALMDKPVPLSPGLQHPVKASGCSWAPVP
Experiment: fluorescence anisotropy
pKd: −log10 of the molar value.
value_type: pKd

• UUAACACAAAAUACGCACCCCA (ssRNA) [22nt RNA (RNAF-22)] = ~6.90
